Cited source for all entries: patent US9993436B2

assay: physchem; conditions: organic solvent or mixture
MEASUREMENT LABEL: solubility (mM)

> print(dat)
                                 cpd.smiles  quantitative.result
1  COC1=CC(=O)C[C@@H](C)[C@]12Oc1c(Cl)c(OC)cc(OC)c1C2=O                  116

###

experiment: Particle size distribution by laser diffraction particle size analyzer; assay type: physicochemical; settings: drug crystals from PHFAC module without any polymer in the feed solution; various shell/tube side flow rates
MEASUREMENT LABEL: d10 (μm)

> print(dat)
                                   compound  quantitative.result
1  COC1=CC(=O)C[C@@H](C)[C@]12Oc1c(Cl)c(OC)cc(OC)c1C2=O [X1, Griseofulvin]                4.977
2  COC1=CC(=O)C[C@@H](C)[C@]12Oc1c(Cl)c(OC)cc(OC)c1C2=O [X3, Griseofulvin]                2.939
3  COC1=CC(=O)C[C@@H](C)[C@]12Oc1c(Cl)c(OC)cc(OC)c1C2=O [X2, Griseofulvin]                2.117
4  COC1=CC(=O)C[C@@H](C)[C@]12Oc1c(Cl)c(OC)cc(OC)c1C2=O [X0, Griseofulvin]                1.001

###

test: Particle size distribution by laser diffraction particle size analyzer; assay type: physicochemical; conditions: drug crystals from PHFAC module without any polymer in the feed solution; various shell/tube side flow rates
MEASUREMENT LABEL: d90 (μm)

> print(dat)
                                   molecule  quantitative.result
1  COC1=CC(=O)C[C@@H](C)[C@]12Oc1c(Cl)c(OC)cc(OC)c1C2=O [X2, Griseofulvin]                30.30
2  COC1=CC(=O)C[C@@H](C)[C@]12Oc1c(Cl)c(OC)cc(OC)c1C2=O [X0, Griseofulvin]                2.219
3  COC1=CC(=O)C[C@@H](C)[C@]12Oc1c(Cl)c(OC)cc(OC)c1C2=O [X3, Griseofulvin]                26.62
4  COC1=CC(=O)C[C@@H](C)[C@]12Oc1c(Cl)c(OC)cc(OC)c1C2=O [X1, Griseofulvin]                15.29
